Measured target: T1, recombinant human NKp30 extracellular domain, his-tagged (human, UniProt O14931 19-135)
T1 construct: BLI used human NKp30 bought from Abcam (his-tagged ECD); also called rh NKp30 ECD; human NKp30 (Abcam); not shown: his tag
T1 sequence: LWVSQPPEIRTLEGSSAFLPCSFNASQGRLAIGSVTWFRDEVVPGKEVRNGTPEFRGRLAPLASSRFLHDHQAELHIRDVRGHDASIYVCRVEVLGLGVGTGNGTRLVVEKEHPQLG
Assay notes: BLI as in Example 1, maximum binding capacity

- Binder: "VHH1.9 (humanized) (VHH, expressed and measured by BLI 'as described in Experiment 1' (there: bispecific SEEDbody on anti-human Fc sensors)) VHH: EVQLVESGGGVVQPGGSLRLSCAASGFTLDDYTIGWVRQAPGKGLEGVSCFSPSDGTTYYADSVKGRFTISRDNAKNTLYLQMNSLRAEDTAVYYCAASFADGSSWCYDYWGQGTLVTVSS"
  Unit spec: "nm"
  Emax (nm): 0.1
- Binder: "VHH1.3 (humanized) (VHH, expressed and measured by BLI 'as described in Experiment 1' (there: bispecific SEEDbody on anti-human Fc sensors)) VHH: EVQLVESGGGVVQPGGSLRLSCAASGFTLDDYTIGWVRQAPGKEHEGVSCFSPSDGTTYYADSVKGRFTISRDNAKNTLYLQMNSLRAEDTAVYYCAASFADGSSWCYDYWGQGTLVTVSS"
  Unit spec: "nm"
  Emax (nm): 0.12
